Reference for the values: patent US12325706B2

- Assay Procedure: Approximate solubility of starting material at RT
- Format: physicochemical
- Condition Parameters: organic solvent or mixture, EtOH, RT
Attribute Measured: solubility

The value of solubility measured for the compound C[C@H](O)C(=O)C1=Nc2c(nc(N)[nH]c2=O)NC1 [Form A, sepiapterin] turned out to be < 1500 µg/mL

----------
- Assay Procedure: Approximate solubility of starting material at RT
- Type: physicochemical
- Condition Parameters: organic solvent or mixture, Toluene, RT
Attribute Measured: solubility

Value of solubility reported for the compound C[C@H](O)C(=O)C1=Nc2c(nc(N)[nH]c2=O)NC1 [Form A, sepiapterin] is < 2400 µg/mL

----------
- Assay Procedure: Approximate solubility of starting material at RT
- Format: physicochemical
- Condition Parameters: organic solvent or mixture, n-Heptane, RT
Attribute Measured: solubility

Lab book: solubility of C[C@H](O)C(=O)C1=Nc2c(nc(N)[nH]c2=O)NC1 [Form A, sepiapterin] noted as < 2100 µg/mL

----------
- Assay Procedure: Approximate solubility of starting material at RT
- Type: physicochemical
- Condition Parameters: organic solvent or mixture, DCM, RT
Attribute Measured: solubility

Summary for this compound, C[C@H](O)C(=O)C1=Nc2c(nc(N)[nH]c2=O)NC1 [Form A, sepiapterin] : solubility is < 1500 µg/mL
